Experiment: Example 19 crossover pharmacokinetics of four oral tablet formulations in fasted dogs
Type: in vivo, beagle dogs
Settings: male, beagle, dog, plasma, po, 200 mg/tablet/dog, Example 19, fasted dogs, 200 mg tablet PO, mean; LOQ 1.02 to 5.1 ng/mL; read-out: Plasma concentration of Compound I at 8 hours
Description: Pharmacokinetics parameters of formulations of Compound I and its salts in dogs were determined by orally administering a test formulation tablet at 200 mg of active (Compound I or salt) per dog. Blood samples were taken at various times after administration, plasma prepared, and submitted to analysis for parent drug using a qualified LC-MS-MS assay. Pharmacokinetics parameters derived from the plasma analytical data were determined using non-compartmental analysis. […]
ASSAY METRIC: concentration at 8 h (ng/mL)
Lab book: enter the figure in ng/mL, no units written.

Write down concentration at 8 h measured for item Cc1ccc(S(=O)(=O)O)cc1.Cn1cc(-c2cn(-c3ccc(OC(F)(F)F)cc3)c(=O)c3ncn(C)c23)cn1 [mono-tosylate]
3550

====

Experiment: Example 21 crossover pharmacokinetics of mono-tosylate and di-tosylate tablets in fasted dogs
Assay type: in vivo, beagle dogs
Settings: male, beagle, dog, plasma, po, 200 mg, Example 21, fasted dogs, 200 mg tablet PO, mean; read-out: AUC0-rt
ASSAY METRIC: AUC (ng·h/mL)
Lab book: enter the figure in ng·h/mL, no units written.

Write down AUC measured for item Cc1ccc(S(=O)(=O)O)cc1.Cn1cc(-c2cn(-c3ccc(OC(F)(F)F)cc3)c(=O)c3ncn(C)c23)cn1 [mono-tosylate]
70900

====

Experiment: Solubility in pure water at 25° C. with PXRD of solid residues
Type: physicochemical
Settings: pH of solubility sample, pure water, 25° C., one hour
ASSAY METRIC: pH (1 hr)
Could you respond with only the numeric value?

Recorded pH (1 hr), per entry:
| COMPOUND | pH (1 hr) |
| --- | --- |
| Br.Br.Cn1cc(-c2cn(-c3ccc(OC(F)(F)F)cc3)c(=O)c3ncn(C)c23)cn1 | 1.6 |
| Cc1ccc(S(=O)(=O)O)cc1.Cn1cc(-c2cn(-c3ccc(OC(F)(F)F)cc3)c(=O)c3ncn(C)c23)cn1 [mono-tosylate] | 1.47 |
| Cn1cc(-c2cn(-c3ccc(OC(F)(F)F)cc3)c(=O)c3ncn(C)c23)cn1.O=[N+]([O-])O [mono-nitrate crystalline] | 1.8 |
| Cn1cc(-c2cn(-c3ccc(OC(F)(F)F)cc3)c(=O)c3ncn(C)c23)cn1.Cn1cc(-c2cn(-c3ccc(OC(F)(F)F)cc3)c(=O)c3ncn(C)c23)cn1.O=S(=O)(O)CCS(=O)(=O)O [hemi-edisylate] | 1.42 |

Consider the additional compound presented here.
Write down pH (1 hr) measured for item Cl.Cl.Cn1cc(-c2cn(-c3ccc(OC(F)(F)F)cc3)c(=O)c3ncn(C)c23)cn1 [di-HCl crystalline]
1.3

====

Experiment: Example 19 crossover pharmacokinetics of four oral tablet formulations in fasted dogs
Type: in vivo, beagle dogs
Conditions: male, beagle, dog, plasma, po, 200 mg/tablet/dog, Example 19, fasted dogs, 200 mg tablet PO, mean; LOQ 1.02 to 5.1 ng/mL; read-out: Plasma concentration of Compound I at 0.25 hours
ASSAY METRIC: concentration at 0.25 h (ng/mL)
Lab book: enter the figure in ng/mL, no units written.

Write down concentration at 0.25 h measured for item Cc1ccc(S(=O)(=O)O)cc1.Cn1cc(-c2cn(-c3ccc(OC(F)(F)F)cc3)c(=O)c3ncn(C)c23)cn1 [mono-tosylate]
1060
